System: UACC-257 melanoma
protocol-description: NCI tumour cell line growth inhibition, 48 h
Recorded measurements of TGI, one per entry

Here's what some known entries look like.
CNC(=S)N/N=C(/C)CCC/C(C)=N/NC(=S)NC | > 100 µM
O=C1CSc2ccncc2N1 | > 100 µM
COc1ccc(OC)c(/C=C/c2cnnc3ccccc23)c1 | > 10 µM

response.value for "COc1ccc2oc(-c3ccc(Cl)cc3)c(N3CCN(C)CC3)c2c1" (field: TGI) = 3.43 µM

response.value for "CCC(C)(C)c1ccc(Oc2cccc(C(=O)O)c2)cc1" (field: TGI) = > 100 µM

response.value for "CN(C)C(=S)SCc1ccccc1" (field: TGI) = > 100 µM

response.value for "O=C1C(c2c(O)[nH]c3ccc(S(=O)(=O)N(CCO)CCO)cc23)=Nc2ccccc21" (field: TGI) = > 100 µM

response.value for CC1CC(=O)NC2CC1C2(C)C (configuration not stated) (field: TGI) = > 100 µM

response.value for "O=C1C=CC(=O)N1CCCCCCCCCCN1C(=O)C=CC1=O" (field: TGI) = 24.8 µM

response.value for "CCOC(=O)c1cc(Cl)ccc1OC(N)=O" (field: TGI) = > 100 µM

response.value for "CSc1ccc2c(c1)C(=O)c1c-2n(CCCN=[N+]=[N-])c(=O)c2cc([N+](=O)[O-])ccc12" (field: TGI) = > 100 µM

response.value for COC1=CC(=O)C2[C@H]3Cc4ccccc4[C@H]3C2(C)C1=O (some centres not stated) (field: TGI) = > 100 µM

* * *

Test system: MDA-MB-435
Response enum: active, inactive

Worked set:
COc1ccc2c(c1)CC[C@@H]1[C@@H]2CC[C@]2(C)c3c(cc(C(=O)c4ccccc4)c4sccc34)C[C@@H]12 | inactive
COC(C(=O)[C@@H](O)[C@@H](C)O)[C@@H]1Cc2cc3cc(O[C@H]4C[C@@H](O[C@H]5C[C@@H](O)[C@H](O)C(C)O5)[C@H](O)C(C)O4)c(C)c(O)c3c(O)c2C(=O)[C@H]1O[C@H]1C[C@@H](O[C@H]2C[C@@H](O[C@H]3C[C@@H](O)[C@@H](O)C(C)O3)[C@@H](O)C(C)O2)[C@H](O)C(C)O1 (some centres undefined) | active
Cc1cc(Cl)ccc1Nc1nc(C(F)(F)F)ccc1C(=O)N/N=C/c1ccc(F)cc1 | inactive

In the following, a different molecule is considered.
Could you kindly confirm the outcome this assay logged for Cn1cc(C2=C(c3cccc(NCC(O)CO)c3)C(=O)NC2=O)c2cc(Cl)ccc21 (centres undefined) ?
inactive

* * *

System: NCI-H460 lung
protocol-description: NCI tumour cell line growth inhibition, 48 h
Recorded measurements of TGI, one per entry

Here's what some known entries look like.
COc1ccc2c(c1)c(=O)oc1cc(OC/C(=N\O)c3ccc(F)cc3)ccc12 | 53.3 µM
CCOC(=O)c1nc2ccc(C(F)(F)F)cc2nc1Nc1ccc(OC)c(OC)c1 | > 100 µM
CC[C@]12C=CCN3CCC4(c5cc(N=Nc6ccc([N+](=O)[O-])cc6)c(OC)cc5N(C)[C@H]4[C@@](O)(C(=O)OC)[C@@H]1OC(C)=O)[C@@H]32 (stereo partly specified) | > 100 µM
Cn1cc(C2=C(c3cccc(NCC(O)CO)c3)C(=O)NC2=O)c2cc(Cl)ccc21 (stereo unspecified) | > 25 µM
Nc1nc(Cl)cc(NCC2(CO)CCC(OCc3ccccc3)C2)n1 (stereo unspecified) | > 100 µM
COc1ccc2nc(-c3ccc(O)cc3)cn2c1 | > 100 µM

response.value for CCOC(=O)C(SCCO)C(C(=O)OCC)n1cc(C)c(=O)[nH]c1=O (stereo unspecified) (field: TGI) = > 100 µM

response.value for "COC(=O)c1cc(/C=C2\Cc3cc4c(cc3C2=O)CCC4)cc2c1CCC2" (field: TGI) = > 100 µM

response.value for "Cc1ccc(S(=O)(=O)NC(=O)Nc2nc(Cl)cc(Cl)n2)cc1" (field: TGI) = > 100 µM

response.value for O=C(CN1C(=O)c2ccccc2C1=O)OCC1CCCN2CCCCC12 (stereo unspecified) (field: TGI) = > 100 µM

response.value for "C=CCn1c(=S)sc2c(=O)[nH]cnc21" (field: TGI) = > 100 µM

response.value for "Cc1cc(Cl)ccc1Nc1nc(C(F)(F)F)ccc1C(=O)N/N=C/c1c(Cl)cccc1Cl" (field: TGI) = 4.39 µM

response.value for O=C1[C@H](c2ccccc2)C2c3ccccc3CCN12 (stereo partly specified) (field: TGI) = > 100 µM

response.value for "N#C/C(N)=C(\C#N)N=CNc1ccccc1N" (field: TGI) = > 100 µM

response.value for "Cc1c(C)c2ccc(O)cc2[nH]c1=O" (field: TGI) = > 100 µM

response.value for "N=c1c2ccccc2nc2oc3ccc(Cl)cc3n12" (field: TGI) = > 100 µM

response.value for "COC(=O)/C(Br)=C/c1c[nH]c2ccc(Br)cc12" (field: TGI) = 36.9 µM

* * *

Recorded measurements of TGI, one per entry
Test system: SW-620 colon
protocol-description: NCI tumour cell line growth inhibition, 48 h

Here's what some known entries look like.
Cc1ccccc1C(C#N)/C(=N/NC(=O)C(=O)NN)C(=O)Nc1cccc(C(F)(F)F)c1 (stereo unspecified) | > 100 µM
N#Cc1ccccc1/C=N/O | > 51.8 µM
Cc1cc(-c2ccc(Cl)cc2)c(C#N)c(=S)n1C1OC(CO)C(O)C(O)C1O (stereo unspecified) | > 100 µM
COc1cc(C2SC(N)=Nc3c2c(C)nn3C(=O)Cc2ccccc2)ccc1O (stereo unspecified) | > 100 µM
COC(=O)c1cc(O)ccc1NC(=O)c1ccc(O)cc1 | > 100 µM
N#C/C(N)=C(\C#N)N=CNc1ccccc1N | > 100 µM

response.value for "OCCCNC(=S)Nc1ccc(-c2nc3ccccc3s2)cc1" (field: TGI) = > 100 µM

response.value for "O=C(Nc1ccc(Cl)cc1Cl)/C(Cl)=C1/Sc2ccccc2NC1=O" (field: TGI) = > 100 µM

response.value for "Cc1c(C)c2ccc(O)cc2[nH]c1=O" (field: TGI) = > 100 µM

response.value for "C/C(CN1C(=O)c2ccccc2C1=O)=N\NS(C)(=O)=O" (field: TGI) = > 100 µM

response.value for "Cc1ccc(S(=O)(=O)N2C/C(=C\c3cc(F)cc(F)c3)C(=O)/C(=C/c3cc(F)cc(F)c3)C2)cc1" (field: TGI) = 0.283 µM

* * *

System: MDA-N
protocol-description: NCI tumour cell line growth inhibition, 48 h
assay-endpoint: TGI

Here's what some known entries look like.
COC1(C)Cc2c(c(C)c(O)c3c2C(=O)C=C(Cl)C3=O)O1 (configuration not stated) | > 100 µM
N#C/C(N)=C(\C#N)N=CNc1ccccc1N | > 100 µM
Nc1nc(Cl)cc(NCC2(CO)CCC(OCc3ccccc3)C2)n1 (configuration not stated) | 74.6 µM

Form: item O=C(O)C1CCCN1Cc1ccc2c(c1)OCO2 (configuration not stated) ; test system MDA-N; TGI: > 100 µM

Form: item "O=C(NO)c1ccc(OCc2ccccc2)cc1" ; test system MDA-N; TGI: > 100 µM

Form: item "Cc1cc2nc3c(C#N)c(-c4ccccc4)cc(Nc4cccc(C(F)(F)F)c4)n3c2cc1C" ; test system MDA-N; TGI: 24.7 µM

Form: item "N=c1c2ccccc2nc2oc3ccc(Cl)cc3n12" ; test system MDA-N; TGI: > 100 µM

Form: item "CN(C)C(=S)SCc1ccccc1" ; test system MDA-N; TGI: > 100 µM

Form: item CN(C)CC1CN(C(=O)Nc2ccccc2)C(=N)O1 (configuration not stated) ; test system MDA-N; TGI: > 100 µM

* * *

Recorded measurements of TGI, one per entry
Tested on: NCI/ADR-RES ovarian
protocol-description: NCI tumour cell line growth inhibition, 48 h

response.value for "CC(=O)O[C@@H]1CC(=O)O[C@@H]2C[C@@H](CC/C(Cl)=C/C/C=C\1C)O[C@@H]2CO" (field: TGI) = > 25 µM

response.value for "Cc1ccc(OCCn2cc(Nc3ccccc3)c(=O)[nH]c2=O)cc1" (field: TGI) = > 100 µM

response.value for "C#Cc1ccc(-n2c(/C=C/c3ccc4ccccc4n3)nc3ncccc3c2=O)cc1" (field: TGI) = 1.23 µM

response.value for "C/C(=C\[C@H]1C[C@@H]([C@@H]2CC[C@]34C[C@]23C=C[C@@H]2[C@@]3(C)CC=C5C[C@@H](c6ccccc6)OC[C@]5(C)[C@@H]3C[C@@H](O)[C@]24C)C(=O)O1)CO" (field: TGI) = > 100 µM

response.value for "COc1cc2c(cc1OC)C(=O)/C(=C/c1ccccc1)C2" (field: TGI) = > 100 µM

response.value for "C/C(=C\c1ccc2c(c1)OCO2)[N+](=O)[O-]" (field: TGI) = 37.9 µM

response.value for "Clc1ccc(N=Cc2cc3cc(Br)ccc3nc2Cl)cc1" (field: TGI) = > 50 µM

response.value for "O=C(O)c1cn(C2CC2)c2cc(N3CCN(C(=O)Nc4nc(-c5ccc(Cl)cc5)cs4)CC3)c(F)cc2c1=O" (field: TGI) = > 100 µM

response.value for "O=C(Nc1cc(Cl)cc(Cl)c1)c1ccc(NC2=C(Cl)C(=O)N(Cc3ccccc3)C2=O)cc1" (field: TGI) = 26.7 µM
